tested on: A498 complex spheroids with HUVEC/MSC, growth; test: Anticancer human tumor A498 cell line growth inhibition [AhR]; settings: second compound 0.316 µM; first compound 0.3 µM; stronger effect = lower value;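 also: luminescence signal used as a surrogate for viable cells; seven day exposure starting three days after spheroid seeding; luminescence viability scaled so 100% equals DMSO vehicle wells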
measurement.kind: viability, T/C

Answered examples (2):
[in] Determine reported viability, T/C for Nc1ncn(C2CC(O)C(CO)S2)c(=O)n1 (stereo not drawn) + Cc1cncc(-c2nc(NCCc3c[nH]c4ccccc34)c3ncn(C(C)C)c3n2)c1 ; test system: A498 complex spheroids with HUVEC/MSC, growth.
[out] 68.3%

[in] Determine reported viability, T/C for CC(C)CC(NC(=O)C(Cc1ccccc1)NC(=O)c1cnccn1)B(O)O (stereo not drawn) + CC(CO)NC(=O)c1cc(-c2ccc(Cl)cc2)nn(-c2cnn(C)c2)c1=O ; test system: A498 complex spheroids with HUVEC/MSC, growth.
[out] 1.14%

Kindly review the next molecule as well.
[in] Determine reported viability, T/C for Nc1ncn(C2CC(O)C(CO)S2)c(=O)n1 (stereo not drawn) + Cc1ccccc1N=Nc1ccc(NC(=O)c2ccnn2C)c(C)c1 ; test system: A498 complex spheroids with HUVEC/MSC, growth.
[out] 78.1%

====

system: A498 complex spheroids with HUVEC/MSC, growth; assay: Anticancer human tumor A498 cell line growth inhibition [AhR]; settings: second compound 0.1 µM; first compound 0.03 µM; stronger effect = lower value;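 also: luminescence signal used as a surrogate for viable cells; seven day exposure starting three days after spheroid seeding; luminescence viability scaled so 100% equals DMSO vehicle wells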
measurement.kind: viability, T/C (%)
Give the number; % is assumed, so skip it.

[in] Supply reported viability, T/C belonging to this molecule: CCN(c1cc(-c2ccc(CN3CCOCC3)cc2)cc(C(=O)NCc2c(C)cc(C)[nH]c2=O)c1C)C1CCOCC1 + Cc1cncc(-c2nc(NCCc3c[nH]c4ccccc34)c3ncn(C(C)C)c3n2)c1
[out] 97

[in] Supply reported viability, T/C belonging to this molecule: Nc1ncn(C2CC(O)C(CO)S2)c(=O)n1 (stereo not given) + Cc1ccccc1N=Nc1ccc(NC(=O)c2ccnn2C)c(C)c1
[out] 89.8

[in] Supply reported viability, T/C belonging to this molecule: O=C(C=Cn1cnc(-c2cc(C(F)(F)F)cc(C(F)(F)F)c2)n1)NNc1cnccn1 + Cc1cncc(-c2nc(NCCc3c[nH]c4ccccc34)c3ncn(C(C)C)c3n2)c1
[out] 73.7

---
[in] Supply reported viability, T/C belonging to this molecule: CCc1c2c(nc3ccc(O)cc13)-c1cc3c(c(=O)n1C2)COC(=O)[C@]3(O)CC + Cc1cncc(-c2nc(NCCc3c[nH]c4ccccc34)c3ncn(C(C)C)c3n2)c1
[out] 51

[in] Supply reported viability, T/C belonging to this molecule: CCN(c1cc(-c2ccc(CN3CCOCC3)cc2)cc(C(=O)NCc2c(C)cc(C)[nH]c2=O)c1C)C1CCOCC1 + Cc1ccccc1N=Nc1ccc(NC(=O)c2ccnn2C)c(C)c1
[out] 96.8
